testedOn: 5-hydroxytryptamine receptor 1A (Rattus norvegicus, UniProt P19327)
attributeMeasured: pKi
Note on pKi: it is the negative log10 of concentration, concentration in mol/L.

# input Write down the reported pKi of CCCN(CCC)C1CCc2cccc(C(=O)C3CCCCC3)c2C1 (stereo not drawn) , test system: 5-hydroxytryptamine receptor 1A (Rattus norvegicus, UniProt P19327).
# output 7.80

# input Could you do the same for CC(C)NCC(O)COc1cccc2[nH]c(C#N)cc12 (stereo not drawn) , please?
# output 8.67

# input Could you do the same for CN1CC=C(c2c[nH]c3ccc(C4COCCO4)cc23)CC1 (stereo not drawn) , please?
# output 7.06

# input Could you do the same for CCCN(CCCCNC(=O)c1ccc(F)cc1)C1COc2cccc(OC)c2C1 (stereo not drawn) , please?
# output 9.70

# input Could you do the same for CC(C)NCC(O)COc1ccccc1 (stereo not drawn) , please?
# output 6.77

# input Could you do the same for COc1cccc2c1CC(N)CC2 (stereo not drawn) , please?
# output 6.75

# input Could you do the same for CCCN(CCC)C1CCc2cccc(C#N)c2C1 (stereo not drawn) , please?
# output 7.43

# input Could you do the same for CCCN(CCC)C1COc2cccc(O)c2C1 (stereo not drawn) , please?
# output 8.70

# input Could you do the same for CCCN(CCC)C1CCc2cccc(C(=O)OC)c2C1 (stereo not drawn) , please?
# output 8.77

# input Could you do the same for "NCCc1c[nH]c2ccc(C(N)=O)cc12" , please?
# output 9.53

# input Could you do the same for c1ccc2c(c1)CCC2N1CCN(c2cccc3c2OCCO3)CC1 (stereo not drawn) , please?
# output 8.74

# input Could you do the same for "COc1ccccc1N1CCNCC1" , please?
# output 7.89

# input Could you do the same for "O=C1C=CC(c2[nH]c3ccccc3c2C2=CCNCC2)=NC1" , please?
# output 5.82

# input Could you do the same for "Fc1ccc2[nH]cc(C3=CCNCC3)c2c1" , please?
# output 7.49

# input Could you do the same for "c1ccc2cc(N3CCNCC3)ccc2c1" , please?
# output 5.49

# input Could you do the same for C=CCOc1ccccc1OCC(O)CNC(C)C (stereo not drawn) [OXPRENOLOL] , please?
# output 7.03

# input Could you do the same for "CC(=O)N1CCN(c2cccc(Cl)c2)CC1" , please?
# output 4.00

# input Could you do the same for "COc1ccccc1N1CCN(CCCCNCc2ccccc2)CC1" , please?
# output 7.22

# input Could you do the same for CN(C)CC(O)COc1ccccc1O (stereo not drawn) , please?
# output 5.31

# input Could you do the same for "Cc1[nH]c2ccc(O)cc2c1CCN" , please?
# output 5.60

# input Could you do the same for CCCN(CCC)C1CCc2cccc(C)c2C1 (stereo not drawn) , please?
# output 7.21

# input Could you do the same for COc1cccc2c1CC(N1CCCCC1)CC2 (stereo not drawn) , please?
# output 7.11

# input Could you do the same for "Oc1ccc2[nH]cc(C3=CCNCC3)c2c1" , please?
# output 7.82

# input Could you do the same for "Clc1ccc2[nH]cc(C3=CCNCC3)c2c1" , please?
# output 7.88

# input Could you do the same for CC(CN)c1c[nH]c2ccc(O)cc12 (stereo not drawn) , please?
# output 7.07

# input Could you do the same for CCCN(CCCCNS(=O)(=O)c1ccc(C)cc1)C1COc2cccc(OC)c2C1 (stereo not drawn) , please?
# output 9.00

# input Could you do the same for "CC(C)C(=O)N1CCN(c2cccc(Cl)c2)CC1" , please?
# output 4.00

# input Could you do the same for CCCN(CCC)C1CCc2cccc(C(C)=O)c2C1 (stereo not drawn) , please?
# output 9.15

# input Could you do the same for "CN1CCN(c2cccc3ccoc23)CC1" , please?
# output 8.10

# input Could you do the same for "CN(C)CCc1c[nH]c2ccc3c(c12)CCCO3" , please?
# output 6.02

# input Could you do the same for CCCN(CCCCN1C(=O)CC2(CCCC2)CC1=O)C1COc2ccccc2C1 (stereo not drawn) , please?
# output 9.00

# input Could you do the same for "Oc1ccc2cccc(N3CCNCC3)c2c1" , please?
# output 8.48

# input Could you do the same for CCCN(CCC)C1COc2ccccc2C1 (stereo not drawn) , please?
# output 6.70

# input Could you do the same for "CN1CC=C(c2c[nH]c3ccc(Cl)cc23)CC1" , please?
# output 7.58

# input Could you do the same for "COc1ccccc1N1CCN(CCCCNC(=O)C2CCCCC2)CC1" , please?
# output 9.22

# input Could you do the same for COc1ccc2[nH]cc(CCN(C)C)c2c1 [MEBUFOTENIN] , please?
# output 8.26

# input Could you do the same for "Brc1ccc2[nH]cc(C3=CCNCC3)c2c1" , please?
# output 8.19

# input Could you do the same for CC(C)NCC(O)COc1ccccc1-n1cccc1 (stereo not drawn) [ISAMOLTAN] , please?
# output 7.31

# input Could you do the same for COc1ccccc1OCCNCC(O)COc1cccc2[nH]c3ccccc3c12 (stereo not drawn) [CARVEDILOL] , please?
# output 8.50

# input Could you do the same for CC(C)(C)NC[C@H](O)COc1nsnc1N1CCOCC1 [TIMOLOL] , please?
# output 6.21

# input Could you do the same for CCCNC1CCc2cccc(OC)c2C1 (stereo not drawn) , please?
# output 8.32

# input Could you do the same for CCCN(CCC)C1CCc2cccc(CO)c2C1 (stereo not drawn) , please?
# output 6.89

# input Could you do the same for "CCCCCCCCN1CCN(c2ccccc2)CC1" , please?
# output 7.95

# input Could you do the same for CCCN(C1COc2cccc(OC)c2C1)N1C(=O)C2CCCC2C1=O (stereo in doubt; 247) , please?
# output 9.00

# input Could you do the same for "C=C=CN1CCN(c2cccc(Cl)c2)CC1" , please?
# output 6.60

# input Could you do the same for CCCCN(CCCC)CC(O)COc1cccc2ccccc12 (stereo not drawn) , please?
# output 6.65

# input Could you do the same for "O=C1c2ccccc2C(=O)N1CCN1CCN(c2ccccc2)CC1" , please?
# output 5.00

# input Could you do the same for CC(C)NCC(O)COc1cccc2[nH]c(OC(=O)OC(C)C)cc12 (stereo not drawn) , please?
# output 7.76

# input Could you do the same for "CN(C)CCc1c[nH]c2cc3c(cc12)CCCO3" , please?
# output 6.22

# input Could you do the same for "O=[N+]([O-])c1ccc2[nH]cc(C3=CCNCC3)c2c1" , please?
# output 7.74

# input Could you do the same for "CN1CC=C(c2c[nH]c3ccc(Br)cc23)CC1" , please?
# output 7.82

# input Could you do the same for "O=C1c2ccccc2C(=O)N1CCCCN1CCN(c2cccc(Cl)c2)CC1" , please?
# output 8.33

# input Could you do the same for "CCCN1CC=C(c2c[nH]c3ccc(C(=O)OC)cc23)CC1" , please?
# output 6.42

----------
testedOn: 5-hydroxytryptamine receptor 1A (Rattus norvegicus, UniProt P19327)
Sequence (P19327 whole entry): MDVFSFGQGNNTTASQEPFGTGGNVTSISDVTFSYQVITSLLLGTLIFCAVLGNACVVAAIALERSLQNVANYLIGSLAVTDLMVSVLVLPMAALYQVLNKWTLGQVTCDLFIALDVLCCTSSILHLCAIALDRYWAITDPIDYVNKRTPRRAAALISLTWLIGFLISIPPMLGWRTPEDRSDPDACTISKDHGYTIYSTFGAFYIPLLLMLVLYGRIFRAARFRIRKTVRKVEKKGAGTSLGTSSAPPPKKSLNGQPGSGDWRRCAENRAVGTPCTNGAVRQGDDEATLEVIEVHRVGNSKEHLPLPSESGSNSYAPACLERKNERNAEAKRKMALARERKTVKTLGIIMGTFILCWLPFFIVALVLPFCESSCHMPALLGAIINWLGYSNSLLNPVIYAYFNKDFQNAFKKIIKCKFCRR
attributeMeasured: pKi
Note on pKi: it is the negative log10 of concentration, concentration in mol/L.

# input Return reported pKi; argument: CCCOCOCCc1ccc(OCC(O)CNC(C)C)cc1 (stereo not given)
# output 5.00

# input Could you do the same for CNCC(COc1cccc(C(F)(F)F)c1)c1ccccc1 (stereo not given) , please?
# output 4.18

# input Could you do the same for "CN1CCN(c2cccc3c2OCCO3)CC1" , please?
# output 7.64

# input Could you do the same for "Cc1ccc2[nH]cc(C3=CCN(C)CC3)c2c1" , please?
# output 7.50

# input Could you do the same for CC(O)CN(CC(C)O)CC(O)COc1cccc2ccccc12 (stereo not given) , please?
# output 5.88

# input Could you do the same for "COc1c(Cl)cccc1N1CCNCC1" , please?
# output 6.06

# input Could you do the same for "COc1ccccc1N1CCN(CCCc2ccccc2)CC1" , please?
# output 8.43

# input Could you do the same for "CN1CC=C(c2c[nH]c3ccc(N)cc23)CC1" , please?
# output 4.61

# input Could you do the same for C#Cc1cccc2c1CC(N(CCC)CCC)CC2 (stereo not given) , please?
# output 7.80

# input Could you do the same for "O=C1c2ccccc2C(=O)N1CCCCN1CCN(c2ccccc2)CC1" , please?
# output 8.07

# input Could you do the same for CC(C)(C)NCC(O)COc1cccc2c1SCCC2 (stereo not given) , please?
# output 7.73

# input Could you do the same for "Cn1cc(CCN)c2c3c(ccc21)OCCC3" , please?
# output 5.58

# input Could you do the same for "NCCc1c[nH]c2ccc3c(c12)CCCO3" , please?
# output 6.52

# input Could you do the same for CC(C)NCC(O)COc1cccc2[nH]ccc12 (stereo not given) , please?
# output 7.66

# input Could you do the same for "c1ccc(N2CCNCC2)cc1" , please?
# output 5.82

# input Could you do the same for CN(C)CC(O)CO (stereo in doubt; 123) , please?
# output 5.31

# input Could you do the same for "FC(F)(F)c1ccc2c(c1)nc(N1CCNCC1)c1cccn12" , please?
# output 7.73

# input Could you do the same for CCCN(CCCN1C(=O)CC2(CCCC2)CC1=O)C1COc2cccc(OC)c2C1 (stereo not given) , please?
# output 9.30

# input Could you do the same for CCCN(C1COc2cccc(OC)c2C1)N1C(=O)C2CCCC2C1=O (stereo in doubt; 255) , please?
# output 9.30

# input Could you do the same for Cn1cc(C(F)(F)F)nc1-c1ccc(OCC(O)CNCCOc2ccc(O)c(C(N)=O)c2)cc1 (stereo not given) [CGP-20712A] , please?
# output 6.22

# input Could you do the same for CCN(CC)C(=O)Nc1ccc(OCC(O)CNC(C)(C)C)c(C(C)=O)c1 (stereo not given) , please?
# output 5.05

# input Could you do the same for CCCN(CCN1C(=O)c2ccccc2C1=O)C1COc2cccc(OC)c2C1 (stereo not given) , please?
# output 6.40

# input Could you do the same for "NCCc1c[nH]c2ccc(N)cc12" , please?
# output 6.15

# input Could you do the same for Cc1ccc(OCC(O)CNC(C)C)c2c1CCC2 (stereo not given) , please?
# output 4.72

# input Could you do the same for CCCN(CCC)C1COc2cccc(OC)c2C1 (stereo not given) , please?
# output 8.00

# input Could you do the same for CCCN(CCC)C1CCc2cccc(OC)c2C1 (stereo not given) , please?
# output 8.58

# input Could you do the same for "CN1CC=C(c2c[nH]c3ccc([N+](=O)[O-])cc23)CC1" , please?
# output 7.43

# input Could you do the same for CCCN(CCC)C1CCc2cccc(C(=O)O)c2C1 (stereo not given) , please?
# output 6.52

# input Could you do the same for "Clc1cccc(N2CCN(C3CC3)CC2)c1" , please?
# output 6.80

# input Could you do the same for CCCN(CCNC(C)=O)C1COc2cccc(OC)c2C1 (stereo not given) , please?
# output 7.70

# input Could you do the same for "CNCCc1c[nH]c2ccc(O)cc12" , please?
# output 8.31

# input Could you do the same for "COc1ccccc1N1CCN(CCc2ccccc2)CC1" , please?
# output 8.74

# input Could you do the same for "CN(C)CCc1cn(C)c2ccc3c(c12)CCCO3" , please?
# output 5.57

# input Could you do the same for CCCN(CCC)C1CCc2cccc(C3CCCCC3)c2C1 (stereo not given) , please?
# output 7.62

# input Could you do the same for CCCN(CCC)CC(O)COc1cccc2ccccc12 (stereo not given) , please?
# output 6.35

# input Could you do the same for "O=C1c2ccccc2C(=O)N1CCCCN1CCN(c2ccccn2)CC1" , please?
# output 8.21

# input Could you do the same for "C1=C(c2c[nH]c3ccccc23)CCNC1" , please?
# output 6.85

# input Could you do the same for CCCc1ccc2c(c1CCC)CC(N(CCC)CCC)CO2 (stereo not given) , please?
# output 5.00

# input Could you do the same for "CN(C)CCc1c[nH]c2ccc(O)cc12" , please?
# output 7.60

# input Could you do the same for CCCN(CCCNS(=O)(=O)c1ccc(C)cc1)C1COc2cccc(OC)c2C1 (stereo not given) , please?
# output 8.82

# input Could you do the same for "O=C1c2ccccc2S(=O)(=O)N1CCCCN1CCN(c2ccccn2)CC1" , please?
# output 8.16

# input Could you do the same for "CC(C)CN1CCN(c2cccc(Cl)c2)CC1" , please?
# output 7.19

# input Could you do the same for COc1ccccc1N1CCN(CCCCNC2CC3CCC2C3)CC1 (stereo not given) , please?
# output 8.40

# input Could you do the same for CCCN(CCC)C1CCc2ccccc2C1 (stereo not given) , please?
# output 7.25

# input Could you do the same for "O=C(c1ccccc1)N1CCN(c2cccc(Cl)c2)CC1" , please?
# output 4.00

# input Could you do the same for CC(C)(C)NCC(O)COc1cccc2c1NC(=O)CC2 (stereo not given) , please?
# output 6.65

# input Could you do the same for "CCCCCCCCN1CCN(c2cccc3c2OCCO3)CC1" , please?
# output 9.00

# input Could you do the same for "N#Cc1ccc2[nH]cc(C3=CCNCC3)c2c1" , please?
# output 7.79

# input Could you do the same for "CCCCN1CCN(c2ccccc2OC)CC1" , please?
# output 6.89

# input Could you do the same for CCCN(CCCCNC(=O)c1ccccc1OC)C1COc2cccc(OC)c2C1 (stereo not given) , please?
# output 9.30
